Reference source: ChEMBL document CHEMBL1799991

- system: Cyclin-dependent kinase 1 (Homo sapiens, UniProt P06493)
- Sequence (P06493 whole entry): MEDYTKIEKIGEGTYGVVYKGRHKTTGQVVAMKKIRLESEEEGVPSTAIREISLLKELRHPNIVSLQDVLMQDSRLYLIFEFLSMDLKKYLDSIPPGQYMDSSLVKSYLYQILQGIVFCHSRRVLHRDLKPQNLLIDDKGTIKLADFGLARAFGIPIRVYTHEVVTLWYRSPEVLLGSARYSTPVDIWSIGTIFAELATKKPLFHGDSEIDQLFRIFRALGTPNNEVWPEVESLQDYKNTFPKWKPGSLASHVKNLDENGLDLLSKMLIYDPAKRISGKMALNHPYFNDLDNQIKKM
endpoint.label: IC50 (nM)

Example molecules with recorded IC50:
Nc1nccc(-c2cc(N3CCOCC3)ccc2O)n1 = 2240
CCc1cc(-c2cc(N3C[C@H](O)[C@@H](O)C3)ccc2O)nc(N)n1 = 31
Nc1nccc(-c2cc(N3CCS(=O)(=O)CC3)ccc2O)n1 = 7500

[I] CN(C)c1cc(-c2cc(N3C[C@H](O)[C@@H](O)C3)ccc2O)nc(N)n1
[II] Nc1nccc(-c2cc(N3CCC(O)CC3)ccc2O)n1
Query: Look at I and II . Which one has the lower recorded IC50 number? Answer format: the label of the selected item.
Result: I

* * *

- Tested on: A549
- method.summary: Cytotoxicity against human A549 cells after 48 hrs
- Type: functional
- test.settings: A549, 48 h
Known GI50 of a selection of compounds
State just the number; it will be interpreted in µM.

Worked set:
Nc1nc(-c2cc(N3C[C@H](O)[C@@H](O)C3)ccc2O)cc(C2CCCCCC2)n1 = 0.6
Nc1nc(NC2CCCC2)cc(-c2cc(N3C[C@H](O)[C@@H](O)C3)ccc2O)n1 = 7

Query: What does the record list as GI50 for Nc1nc(NC2CCCCC2)cc(-c2cc(N3C[C@H](O)[C@@H](O)C3)ccc2O)n1 ?
Result: 1.5

Query: So what does the record say about GI50 for CCCCCCc1cc(-c2cc(N3C[C@H](O)[C@@H](O)C3)ccc2O)nc(N)n1 ?
Result: 0.7

Query: Endpoint output: GI50 of Cc1cc(-c2cc(N3C[C@H](O)[C@@H](O)C3)ccc2O)nc(N)n1 . Value?
Result: 2

* * *

- System: A549
- method.summary: Cytotoxicity against human A549 cells after 48 hrs
- Format: functional
- test.settings: A549, 48 h
endpoint.label: GI50 (nM)
The response must be a number in nM with no trailing unit.

Here are 4 compounds together with their reported answers.
CC(C)c1cc(-c2cc(N3C[C@H](O)[C@@H](O)C3)ccc2O)nc(N)n1 = 1800
Nc1nc(-c2cc(N3C[C@H](O)[C@@H](O)C3)ccc2O)cc(C2CCCCC2)n1 = 1200
Nc1nccc(-c2cc(N3C[C@H](O)[C@@H](O)C3)ccc2O)n1 = 5500
Nc1nc(-c2cc(N3C[C@H](O)[C@@H](O)C3)ccc2O)cc(C2CCCC2)n1 = 2000

Query: Report GI50 for CCc1cc(-c2cc(N3C[C@H](O)[C@@H](O)C3)ccc2O)nc(N)n1 please.
Result: 3000

* * *

- system: Cyclin-dependent kinase 2 (Homo sapiens)
pIC50: −log10 of the molar value.
endpoint.label: pIC50

CN(C)c1cc(-c2cc(N3C[C@H](O)[C@@H](O)C3)ccc2O)nc(N)n1 = 6.60

[1] Nc1nc(-c2cc(N3C[C@H](O)[C@@H](O)C3)ccc2O)cc(C2CCCNC2)n1 (stereo partly specified)
[2] Nc1nc(-c2cc(N3C[C@H](O)[C@@H](O)C3)ccc2O)cc(C2CCCC2)n1
[3] Nc1nccc(-c2cc(N3CCC(O)C3)ccc2O)n1 (stereo unspecified)
Query: Hey, can you sort those molecules up there by pIC50, smallest first? Answer format: list of labels, ordered as asked.
Result: 3, 1, 2

[1] Nc1nccc(-c2cc(N3C[C@H](O)[C@@H](O)C3)ccc2O)n1
[2] CCCCCCc1cc(-c2cc(N3C[C@H](O)[C@@H](O)C3)ccc2O)nc(N)n1
[3] Nc1nc(-c2cc(N3C[C@H](O)[C@@H](O)C3)ccc2O)cc(C2CCNCC2)n1
[4] Nc1nccc(-c2cc(N3CCOCC3)ccc2O)n1
[5] Nc1nc(-c2cc(N3C[C@H](O)[C@@H](O)C3)ccc2O)cc(C2CCCCCC2)n1
Query: // ranking: key=pIC50, reverse=True Arrange the labels as the request states and list them.
Result: 1, 5, 3, 2, 4

* * *

- system: UniProt P06493
endpoint.label: IC50 (nM)

Observe how each entry below is paired with its result.
Nc1nc(-c2cc(N3C[C@H](O)[C@@H](O)C3)ccc2O)cc(N2CCOCC2)n1 = 1000
Nc1nccc(-c2cc(N3C[C@H](O)[C@@H](O)C3)ccc2O)n1 = 15

[P] Cc1cc(-c2cc(N3C[C@H](O)[C@@H](O)C3)ccc2O)nc(N)n1
[Q] Nc1nc(-c2cc(N3C[C@H](O)[C@@H](O)C3)ccc2O)cc(C2CCCCC2)n1
Query: Between these two entries, P and Q , state which has the higher IC50. Answer = label.
Result: Q
(Q: 45 nM, P: 20 nM)
